System: Bacillus subtilis
Test: Antibacterial activity against Bacillus subtilis at 100 ug/disk after 24 hr by paper disk diffusion method
Assay type: functional
Conditions: read-out: IZ
Listed here: items and their measured zone of inhibition at 100 µg/disc.
Respond with the bare value in mm.

Cc1cc(=O)oc2cc(Oc3nc(Nc4ccc(N5C(=O)C(CN6CCN(c7ccccn7)CC6)SC5c5ccc(Cl)cc5)cc4)nc(N(C)C)n3)ccc12 (configuration not stated)
18

What reported zone of inhibition at 100 µg/disc corresponds to Cc1cc(=O)oc2cc(Oc3nc(Nc4ccc(N5C(=O)CSC5c5ccc([N+](=O)[O-])cc5)cc4)nc(N(C)C)n3)ccc12 (configuration not stated) on Bacillus subtilis? 11

Another compound: Cc1cc(=O)oc2cc(Oc3nc(Nc4ccc(N5C(=O)CSC5c5ccc(Cl)cc5Cl)cc4)nc(N(C)C)n3)ccc12 (configuration not stated) 19

---

System: Bacillus subtilis
Experiment: Antibacterial activity against Bacillus subtilis at 100 ug/disk after 24 hr by paper disk diffusion method
Format: functional
Details: read-out: IZ
zone of inhibition at 100 µg/disc of 20 mm or higher: satisfied. Under 20 mm: not satisfied.

Identify whether the reported zone of inhibition at 100 µg/disc of the following molecule is 20 mm or greater: Cc1cc(=O)oc2cc(Oc3nc(Nc4ccc(N5C(=O)CSC5c5ccccc5)cc4)nc(N(C)C)n3)ccc12 (centres undefined) not satisfied

Same question, Cc1cc(=O)oc2cc(Oc3nc(Nc4ccc(N5C(=O)C(CN6CCN(c7ccccn7)CC6)SC5c5ccc([N+](=O)[O-])cc5)cc4)nc(N(C)C)n3)ccc12 (centres undefined) this time not satisfied

Continue with "Cc1cc(=O)oc2cc(Oc3nc(Nc4ccc(/N=C/c5ccccc5C(=O)O)cc4)nc(N(C)C)n3)ccc12" not satisfied

Now try "Cc1cc(=O)oc2cc(Oc3nc(Nc4ccc(/N=C/c5ccc(O)cc5)cc4)nc(N(C)C)n3)ccc12" . not satisfied

Would you mind doing Cc1cc(=O)oc2cc(Oc3nc(Nc4ccc(N5C(=O)C(CN6CCN(c7ccccn7)CC6)SC5c5cccc(F)c5)cc4)nc(N(C)C)n3)ccc12 (centres undefined) as well? satisfied

Query Cc1cc(=O)oc2cc(Oc3nc(Nc4ccc(N5C(=O)C(CN6CCN(c7ccccn7)CC6)SC5c5ccccc5C(=O)O)cc4)nc(N(C)C)n3)ccc12 (centres undefined) next not satisfied

Could you do the same for Cc1cc(=O)oc2cc(Oc3nc(Nc4ccc(N5C(=O)C(CN6CCN(c7ccccn7)CC6)SC5c5ccc(O)cc5)cc4)nc(N(C)C)n3)ccc12 (centres undefined) , please? satisfied

---

Tested on: Aspergillus clavatus
Assay: Antifungal activity against Aspergillus clavatus after 48 hr by agar streak dilution method
Type: functional
Measured quantity: MIC (µg/mL)
Return type: number; implicit unit µg/mL.

Recorded results for 3 molecules are shown here.
Cc1cc(=O)oc2cc(Oc3nc(Nc4ccc(N5C(=O)C(CN6CCN(c7ccccn7)CC6)SC5c5ccc(O)cc5)cc4)nc(N(C)C)n3)ccc12 (centres undefined)
25
COc1ccc(/C=N/c2ccc(Nc3nc(Oc4ccc5c(C)cc(=O)oc5c4)nc(N(C)C)n3)cc2)cc1
100
Cc1cc(=O)oc2cc(Oc3nc(Nc4ccc(/N=C/c5ccccc5C(=O)O)cc4)nc(N(C)C)n3)ccc12
100

Shift focus to the following entry.
Consider the molecule Cc1cc(=O)oc2cc(Oc3nc(Nc4ccc(N5C(=O)C(CN6CCN(c7ccccn7)CC6)SC5c5cccc(F)c5)cc4)nc(N(C)C)n3)ccc12 (centres undefined) and give its measured MIC. 12.5

The reported numbers originate from ChEMBL document CHEMBL3046897.
